experiment: NCI Yeast Anticancer Drug Screen. Data for the sgs1 mgt1 strain (AID 161);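 also: 0% = growth of cultures given vehicle only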; conditions: S. cerevisiae sgs1 mgt1 strain, at 50.0 µM
The panel holds about 79,000 compounds, 15% with a hit somewhere; the sample as a whole holds those more often. The source made the active and inactive calls. Rule as the data show it: active = growth inhibition above about 70%; inactive = the rest.
Just give me one of these, please: true (1) (active), false (0) (inactive)

compound: CCOC(=O)Nc1cc2c(cn1)[nH]c1ccccc12
class.name: false (0)

[ask] How was CC(CCN)(CCN)[N+](=O)[O-] classified in this test?
[reply] false (0)

[ask] How was O=C(C(=O)c1ccc(Cc2ccc(C(=O)C(=O)c3ccccc3)cc2)cc1)c1ccccc1 classified in this test?
[reply] false (0)

[ask] How was CC1(C)C/C(=N/NC(N)=S)C(=NO)/C(=N\NC(N)=S)C1 classified in this test?
[reply] true (1)

[ask] How was Cc1ccc(C(c2ccc(N(C)C)cc2)c2ccc(N(C)C)cc2)cc1 classified in this test?
[reply] true (1)

[ask] How was COc1ccc(-c2[nH]c(-c3ccc(OC)cc3)c(-c3ccccn3)c2-c2ccccn2)cc1 classified in this test?
[reply] true (1)
